Assay: qHTS assay to identify small molecule antagonists of the peroxisome proliferator-activated receptor delta (PPARd) signaling pathway - cell viability counter screen (AID 743213); further: nearly all actives have a fitted effect of over 50% in size
Conditions: PPARd-bla HEK293H viability, CellTiter-Glo luminescence, 17 h; series mostly up to 62 µM
Records with an inconclusive call do not appear. Activity calls are given as the source filed them. The call rests on the fitted dose curve; in most records, active means well fitted cell-killing curve with a large enough effect in the repeat runs; inconclusive means weak or mixed curves; inactive means no such curve, though single readings can be large or run the other way.
Classes used: 1 for active, -1 for inactive

- molecule: "CC(C)OS(C)(=O)=O"
  label.value: -1
- molecule: "O=[N+]([O-])c1ccc(Oc2ccc(C(F)(F)F)cc2[N+](=O)[O-])cc1"
  label.value: -1
- molecule: "CCCCCCCCCCCCCC[P+](CCCCCC)(CCCCCC)CCCCCC (tested in a mixture with another compound)"
  label.value: 1
- molecule: "CN(C)C1CSSSC1"
  label.value: -1
- molecule: "Clc1ccc(CO/N=C(\\Cn2ccnc2)c2ccc(Cl)cc2Cl)c(Cl)c1"
  label.value: -1
- molecule: "[Cl][Sb]([Cl])[Cl]"
  label.value: -1
- molecule: "COP(=S)(OC)Oc1cc(Cl)c(Br)cc1Cl"
  label.value: -1
- molecule: "Cc1cc(C)c(C2=C(OC(=O)CC(C)(C)C)C3(CCCC3)OC2=O)c(C)c1"
  label.value: -1
- molecule: "[Hg+2].[I-].[I-]"
  label.value: 1
- molecule: "Cc1c(Cl)c(=O)oc2cc(OP(=O)(OCCCl)OCCCl)ccc12"
  label.value: -1
- molecule: "ClC1=C(Cl)C2(Cl)C3C(Cl)C(Cl)CC3C1(Cl)C2(Cl)Cl (stereo not drawn)"
  label.value: 1
- molecule: "CCC(C)(C)C(=O)OC1=C(c2ccc(Cl)cc2Cl)C(=O)OC12CCCCC2"
  label.value: -1
- molecule: "COc1cccc2c1C(=O)c1c(O)c3c(c(O)c1C2=O)C[C@@](O)(C(=O)CO)CC3OC1CC(N2CCOC(OC)C2)C(O)C(C)O1 (stereo partly drawn)"
  label.value: -1
- molecule: "COc1ccc(OC)c(CC(C)N)c1 (stereo not drawn)"
  label.value: -1
- molecule: "O=C/C(Cl)=C(/Cl)C(=O)O"
  label.value: -1
- molecule: "CC(C)(C)OO"
  label.value: -1
- molecule: "Oc1ccc(C(c2ccc(O)cc2)(C(F)(F)F)C(F)(F)F)cc1"
  label.value: -1
- molecule: "Clc1ccc(C(c2ccc(Cl)cc2)C(Cl)(Cl)Cl)cc1"
  label.value: -1
- molecule: "CC(C)CC(C)Nc1ccc(Nc2ccccc2)cc1 (stereo not drawn)"
  label.value: 1
- molecule: "CCN(CC)C(=S)[S-].CCN(CC)C(=S)[S-].[Zn+2]"
  label.value: 1
- molecule: "CN(C)[C@@H]1C(=O)C(C(N)=O)=C(O)[C@@]2(O)C(=O)C3=C(O)c4c(O)ccc(Cl)c4[C@@](C)(O)[C@H]3C[C@@H]12"
  label.value: -1
- molecule: "FC(Cl)(Cl)Cl"
  label.value: -1
- molecule: "COc1cc(C=O)cc2c1[C@H](COC(N)=O)[C@]1(OC(C)=O)ON2C[C@H]2[C@@H]1N2C(C)=O"
  label.value: -1

====

Biological target: Cytochrome P450 3A4 (Homo sapiens) (UniProt P08684)
Sequence (P08684 whole entry, looked up): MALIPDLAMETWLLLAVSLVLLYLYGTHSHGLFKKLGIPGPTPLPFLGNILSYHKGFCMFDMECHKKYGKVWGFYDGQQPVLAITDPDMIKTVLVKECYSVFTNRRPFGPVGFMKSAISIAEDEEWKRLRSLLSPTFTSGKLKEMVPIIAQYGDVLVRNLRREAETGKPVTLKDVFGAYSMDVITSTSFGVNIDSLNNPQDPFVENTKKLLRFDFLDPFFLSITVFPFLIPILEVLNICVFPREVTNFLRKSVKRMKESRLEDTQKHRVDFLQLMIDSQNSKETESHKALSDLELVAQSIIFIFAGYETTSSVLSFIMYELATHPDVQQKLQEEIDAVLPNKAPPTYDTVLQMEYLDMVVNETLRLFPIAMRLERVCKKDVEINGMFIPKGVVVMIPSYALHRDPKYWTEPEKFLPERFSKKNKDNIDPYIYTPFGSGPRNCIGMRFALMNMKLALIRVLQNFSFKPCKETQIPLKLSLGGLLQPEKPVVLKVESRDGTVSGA
Assay: Cytochrome P450 Family 3 Subfamily A Member 4 (CYP3A4) small molecule antagonists: luciferase reporter qHTS assay (AID 1671201); further: nearly all actives have a fitted effect of over 50% in size
Details: P450-Glo CYP3A4 enzyme, luciferin luminescence, 1 h; series mostly up to 115 µM
Results filed as inconclusive are left out. Activity calls are given as the source filed them. Calls come from the whole dose curve; as a rule, active = well fitted inhibition curve with a large enough effect in the repeat runs; inconclusive = weak or mixed curves; inactive = no such curve, though single readings can be large or run the other way.
Classes used: Y = active, N = inactive

- compound: "CCOC(=O)C1(c2ccccc2)CCN(CCC(C#N)(c2ccccc2)c2ccccc2)CC1"
  test.system: "Cytochrome P450 3A4 (Homo sapiens) (UniProt P08684)"
  label.value: "N"
- compound: "Cc1cc(C)c(C2=C(OC(=O)CC(C)(C)C)C3(CCCC3)OC2=O)c(C)c1"
  test.system: "Cytochrome P450 3A4 (Homo sapiens) (UniProt P08684)"
  label.value: "Y"
- compound: "O=CC(Br)(Br)Br"
  test.system: "Cytochrome P450 3A4 (Homo sapiens) (UniProt P08684)"
  label.value: "N"
- compound: "O=C(CCl)Nc1ccccc1"
  test.system: "Cytochrome P450 3A4 (Homo sapiens) (UniProt P08684)"
  label.value: "N"
- compound: "ClC(Cl)=C(Cl)Cl"
  test.system: "Cytochrome P450 3A4 (Homo sapiens) (UniProt P08684)"
  label.value: "N"
- compound: "N#Cc1ccccc1N"
  test.system: "Cytochrome P450 3A4 (Homo sapiens) (UniProt P08684)"
  label.value: "N"
- compound: "CCOP(=S)(OCC)OC(Cl)C(Cl)(Cl)Cl (stereo not drawn)"
  test.system: "Cytochrome P450 3A4 (Homo sapiens) (UniProt P08684)"
  label.value: "Y"
- compound: "O=c1ssc(Cl)c1Cl"
  test.system: "Cytochrome P450 3A4 (Homo sapiens) (UniProt P08684)"
  label.value: "Y"
- compound: "CSCCCN=C=S"
  test.system: "Cytochrome P450 3A4 (Homo sapiens) (UniProt P08684)"
  label.value: "N"
- compound: "CCc1cc(C)cc(CC)c1-c1c(OC(=O)C(C)(C)C)n2n(c1=O)CCOCC2"
  test.system: "Cytochrome P450 3A4 (Homo sapiens) (UniProt P08684)"
  label.value: "Y"
- compound: "Cn1cc(C2=C(c3cn(C4CCN(Cc5ccccn5)CC4)c4ccccc34)C(=O)NC2=O)c2ccccc21"
  test.system: "Cytochrome P450 3A4 (Homo sapiens) (UniProt P08684)"
  label.value: "N"
- compound: "ClC(Cl)=C(c1ccc(Cl)cc1)c1ccc(Cl)cc1"
  test.system: "Cytochrome P450 3A4 (Homo sapiens) (UniProt P08684)"
  label.value: "N"
- compound: "O=[N+]([O-])c1cc([N+](=O)[O-])c2ccccc2c1"
  test.system: "Cytochrome P450 3A4 (Homo sapiens) (UniProt P08684)"
  label.value: "N"
- compound: "O=c1oc2ccccc2c(O)c1Cc1c(O)c2ccccc2oc1=O"
  test.system: "Cytochrome P450 3A4 (Homo sapiens) (UniProt P08684)"
  label.value: "N"
- compound: "CC(O)C#N (stereo not drawn)"
  test.system: "Cytochrome P450 3A4 (Homo sapiens) (UniProt P08684)"
  label.value: "N"
- compound: "C1CCC2CCCCC2C1 (stereo not drawn)"
  test.system: "Cytochrome P450 3A4 (Homo sapiens) (UniProt P08684)"
  label.value: "N"
- compound: "Oc1ccc(C(=C(Cl)Cl)c2ccc(O)cc2)cc1"
  test.system: "Cytochrome P450 3A4 (Homo sapiens) (UniProt P08684)"
  label.value: "Y"
- compound: "CC(C)(C)OO"
  test.system: "Cytochrome P450 3A4 (Homo sapiens) (UniProt P08684)"
  label.value: "N"
- compound: "CCc1nn(C)c(C(=O)NCc2ccc(C(C)(C)C)cc2)c1Cl"
  test.system: "Cytochrome P450 3A4 (Homo sapiens) (UniProt P08684)"
  label.value: "N"
- compound: "CN(C)S(=O)(=O)N(SC(F)(Cl)Cl)c1ccccc1"
  test.system: "Cytochrome P450 3A4 (Homo sapiens) (UniProt P08684)"
  label.value: "N"
- compound: "C[CH2][Hg][N]1C(=O)C2C(C1=O)C1(Cl)C(Cl)=C(Cl)C2(Cl)C1(Cl)Cl (stereo not drawn)"
  test.system: "Cytochrome P450 3A4 (Homo sapiens) (UniProt P08684)"
  label.value: "Y"
- compound: "CC(C)OS(C)(=O)=O"
  test.system: "Cytochrome P450 3A4 (Homo sapiens) (UniProt P08684)"
  label.value: "N"
- compound: "CCCOCC(=Nc1ccc(Cl)cc1C(F)(F)F)n1ccnc1"
  test.system: "Cytochrome P450 3A4 (Homo sapiens) (UniProt P08684)"
  label.value: "Y"
- compound: "COc1cc(C=O)cc2c1[C@H](COC(N)=O)[C@]1(OC(C)=O)ON2C[C@H]2[C@@H]1N2C(C)=O"
  test.system: "Cytochrome P450 3A4 (Homo sapiens) (UniProt P08684)"
  label.value: "N"
- compound: "Nc1ccc([N+](=O)[O-])cc1Cl"
  test.system: "Cytochrome P450 3A4 (Homo sapiens) (UniProt P08684)"
  label.value: "N"
- compound: "C[C@]12CC[C@H]3[C@@H](CCC4=CC(=O)CC[C@@]43C)[C@@H]1CC[C@@H]2O"
  test.system: "Cytochrome P450 3A4 (Homo sapiens) (UniProt P08684)"
  label.value: "N"
- compound: "BrCBr"
  test.system: "Cytochrome P450 3A4 (Homo sapiens) (UniProt P08684)"
  label.value: "N"
- compound: "Clc1ccc(C(c2ccc(Cl)cc2)C(Cl)(Cl)Cl)cc1"
  test.system: "Cytochrome P450 3A4 (Homo sapiens) (UniProt P08684)"
  label.value: "N"
- compound: "Cn1[nH]nnc1=S"
  test.system: "Cytochrome P450 3A4 (Homo sapiens) (UniProt P08684)"
  label.value: "N"
- compound: "CC(C)OC(=O)C(O)(c1ccc(Cl)cc1)c1ccc(Cl)cc1"
  test.system: "Cytochrome P450 3A4 (Homo sapiens) (UniProt P08684)"
  label.value: "N"
- compound: "CCCN(CCC)c1c([N+](=O)[O-])cc(S(N)(=O)=O)cc1[N+](=O)[O-]"
  test.system: "Cytochrome P450 3A4 (Homo sapiens) (UniProt P08684)"
  label.value: "Y"
- compound: "ClCc1ccccc1CCl"
  test.system: "Cytochrome P450 3A4 (Homo sapiens) (UniProt P08684)"
  label.value: "N"
- compound: "CC(C)C(=O)Cl"
  test.system: "Cytochrome P450 3A4 (Homo sapiens) (UniProt P08684)"
  label.value: "N"
- compound: "c1ccc2cc3c(cc2c1)-c1cccc2cccc-3c12"
  test.system: "Cytochrome P450 3A4 (Homo sapiens) (UniProt P08684)"
  label.value: "N"
- compound: "ClCCN1CCOCC1"
  test.system: "Cytochrome P450 3A4 (Homo sapiens) (UniProt P08684)"
  label.value: "N"
- compound: "NNC(=O)c1ccccc1"
  test.system: "Cytochrome P450 3A4 (Homo sapiens) (UniProt P08684)"
  label.value: "Y"
- compound: "CC(Cc1ccc(C(C)(C)C)cc1)CN1C[C@@H](C)O[C@@H](C)C1 (stereo partly drawn)"
  test.system: "Cytochrome P450 3A4 (Homo sapiens) (UniProt P08684)"
  label.value: "Y"
- compound: "Oc1ccc(C2(c3ccc(O)cc3)CCCCC2)cc1"
  test.system: "Cytochrome P450 3A4 (Homo sapiens) (UniProt P08684)"
  label.value: "Y"
- compound: "CC1CCC(C(C)C)C(OC(=O)c2ccccc2N)C1 (stereo not drawn)"
  test.system: "Cytochrome P450 3A4 (Homo sapiens) (UniProt P08684)"
  label.value: "N"
- compound: "N#Cc1ccc(O)cc1"
  test.system: "Cytochrome P450 3A4 (Homo sapiens) (UniProt P08684)"
  label.value: "N"
- compound: "Oc1c(Cl)c(Cl)cc(Cl)c1Cl"
  test.system: "Cytochrome P450 3A4 (Homo sapiens) (UniProt P08684)"
  label.value: "N"
- compound: "C[C@]12CC[C@@H]3c4ccc(OC(=O)N(CCCl)CCCl)cc4CC[C@H]3[C@@H]1CC[C@@H]2O"
  test.system: "Cytochrome P450 3A4 (Homo sapiens) (UniProt P08684)"
  label.value: "N"
- compound: "O=[N+]([O-])c1ccc2ccc3cccc4ccc1c2c34"
  test.system: "Cytochrome P450 3A4 (Homo sapiens) (UniProt P08684)"
  label.value: "N"
- compound: "CC1(C)[C@H](C(=O)O[C@H](C#N)c2cccc(Oc3ccccc3)c2)[C@@H]1/C=C(\\Cl)C(F)(F)F"
  test.system: "Cytochrome P450 3A4 (Homo sapiens) (UniProt P08684)"
  label.value: "N"
- compound: "N#CCCSCCC#N"
  test.system: "Cytochrome P450 3A4 (Homo sapiens) (UniProt P08684)"
  label.value: "N"
- compound: "Cc1cc(SCc2sc(-c3ccc(C(F)(F)F)c(F)c3)nc2C)ccc1OCC(=O)O"
  test.system: "Cytochrome P450 3A4 (Homo sapiens) (UniProt P08684)"
  label.value: "N"
- compound: "C=CC(=O)N(C)C"
  test.system: "Cytochrome P450 3A4 (Homo sapiens) (UniProt P08684)"
  label.value: "N"
- compound: "CC(=O)O[C@H]1CC[C@@]2(C)C(=CC[C@@H]3[C@@H]2CC[C@]2(C)C(=O)CC[C@@H]32)C1"
  test.system: "Cytochrome P450 3A4 (Homo sapiens) (UniProt P08684)"
  label.value: "N"
- compound: "NC(=O)CCl"
  test.system: "Cytochrome P450 3A4 (Homo sapiens) (UniProt P08684)"
  label.value: "N"
- compound: "CC(C)(O)c1cnn2c(-c3ccc(F)c(-c4c(F)cccc4C#N)c3)cnc2n1"
  test.system: "Cytochrome P450 3A4 (Homo sapiens) (UniProt P08684)"
  label.value: "Y"
- compound: "N#CNC#N"
  test.system: "Cytochrome P450 3A4 (Homo sapiens) (UniProt P08684)"
  label.value: "N"
- compound: "COc1cc(N)c(Cl)cc1C(=O)NC1CN2CCC1CC2 (stereo not drawn)"
  test.system: "Cytochrome P450 3A4 (Homo sapiens) (UniProt P08684)"
  label.value: "N"
- compound: "CC(=O)/C=C/c1ccc2c(c1)OCO2"
  test.system: "Cytochrome P450 3A4 (Homo sapiens) (UniProt P08684)"
  label.value: "Y"
